# credit: PubChem BioAssay (Tox21)

procedure text: qHTS assay to identify small molecule antagonists of the constitutive androstane receptor (CAR) signaling pathway - cell viability counter screen (AID 1224837); note: nearly all actives have a fitted effect of over 45% in size
study conditions: HepG2-CYP2B6-hCAR viability, CellTiter-Fluor, 23 h, co-treated with 50 nM CITCO; series mostly up to 92.4 µM
Protocol: National Center for Advancing Translational Sciences [NCATS] NIH Chemical Genomics Center [NCGC] U.S. Environmental Protection Agency [EPA] National Institutes of Environmental Health Sciences [NIEHS] National Toxicology Program [NTP] […] A double-stable (hCAR and CYP2B6-2.2kb) transfected cell line, derived from human hepatoma (HepG2) cells, was utilized for the duration of the quantitative high-throughput screens. […] The fluorescence intensity in the plates was then measured using a ViewLux plate reader.
Records with an inconclusive call do not appear. The source made the active and inactive calls. Calls come from the whole dose curve; as a rule, active = well fitted cell-killing curve with a large enough effect in the repeat runs; inconclusive = weak or mixed curves, or effect the other way; inactive = flat fitted curve, though single readings scatter.
Hello, when you answer, please use one of the following outcomes: TRUE = active, FALSE = inactive

Field: example entries. Status: answers known.
CC(C)(C)C(=O)C(=O)O : FALSE
O=C(/C=C/c1ccc(O)c(O)c1)O[C@@H]1C[C@@](OC(=O)/C=C/c2ccc(O)c(O)c2)(C(=O)O)C[C@@H](O)[C@@H]1O : FALSE

Data request: Identify the outcome logged in this assay for the molecule shown: c1ccc2sc(SN(C3CCCCC3)C3CCCCC3)nc2c1
Data returned: FALSE

Data request: Identify the outcome logged in this assay for the molecule shown: CC(C)C[C@H](NC(=O)[C@H](CCc1ccccc1)NC(=O)CN1CCOCC1)C(=O)N[C@@H](Cc1ccccc1)C(=O)N[C@@H](CC(C)C)C(=O)[C@@]1(C)CO1
Data returned: TRUE

Data request: Identify the outcome logged in this assay for the molecule shown: O=C(O)c1cccc(-c2noc(-c3ccccc3F)n2)c1
Data returned: FALSE

Data request: Identify the outcome logged in this assay for the molecule shown: CC(C)=CC(=O)C=C(C)C
Data returned: FALSE
